The entries below come with measured Luciferase assay (EC50 nM) values attached.
target: human CD28 (human, UniProt P10747 19-220); experiment: cell-based or functional assay
Kindly provide the numeric value in nM only, without the unit symbol.

Recorded Luciferase assay (EC50 nM), per entry:
BINDER | Luciferase assay (EC50 nM)
1h-99-2 40K linear PEG (other, 40K linear PEG; site of attachment not stated) VH: EVQLLESGGGLVQPGGSLRLSCAASGFTFDSANMSWVRQAPGKGLEWVSWIEDTGTQTFYADSVKGRFTISRDNSKNTLYLQMNSLRAEDTAVYYCAKSPFGPLYGFDYRGQGTLVTVSS | 100
1h-99-238 40K linear PEG (other, 40K linear PEG; site of attachment not stated) VH: EVQLLESGGGLVQPGGSLRLSCAASGFTFDSANMSWARQAPGKGLEWVSWIEASGVQTFYADSVKGRFTISRDNSKNTLYLQMNSLRAEDTAVYYCAKSPFGPLYGFDYRGQGTLVTVSS | 4.5

Let us move to another entry and its Luciferase assay (EC50 nM).
I'd like to know its Luciferase assay (EC50 nM). The binder in question is 1h-239-891 (other) VL: DIQMTQSPSSLSASVGDRVTITCRASRPIWPFLEWYQQKPGKAPKLLIYFTSRLRHGVPSRFSGSGSGTDFTLTISSLQPEDFATYYCLQNVANPATFSQGTKVEIKR
0.2
